molecular target: Gamma-aminobutyric acid receptor subunit alpha-1 (Rattus norvegicus, UniProt P62813); assay type: functional; also: assay procedure not described here
Sequence (P62813 whole entry): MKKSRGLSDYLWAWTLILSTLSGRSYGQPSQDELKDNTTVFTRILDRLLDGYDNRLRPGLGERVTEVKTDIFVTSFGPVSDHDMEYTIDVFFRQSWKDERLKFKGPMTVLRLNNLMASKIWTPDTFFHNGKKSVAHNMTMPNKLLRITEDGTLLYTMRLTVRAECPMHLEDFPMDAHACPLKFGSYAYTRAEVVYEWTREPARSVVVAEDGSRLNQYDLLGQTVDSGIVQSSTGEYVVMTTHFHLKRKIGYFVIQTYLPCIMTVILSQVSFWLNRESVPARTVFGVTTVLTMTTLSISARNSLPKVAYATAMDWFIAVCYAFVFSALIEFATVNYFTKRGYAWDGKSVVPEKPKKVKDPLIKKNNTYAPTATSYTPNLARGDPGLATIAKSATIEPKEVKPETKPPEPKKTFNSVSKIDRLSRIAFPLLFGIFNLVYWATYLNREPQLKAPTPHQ
Listing of entries alongside the reported AC50.

>>> result_value("CCC(=O)OCC(=O)[C@@]1(OC(=O)CC)[C@@H](C)C[C@H]2[C@@H]3CCC4=CC(=O)C=C[C@]4(C)[C@@]3(F)[C@@H](O)C[C@@]21C [BETAMETHASONE DIPROPIONATE]")
"> 30 µM"
>>> result_value("O=C(Nc1c(Cl)cncc1Cl)c1ccc(OC(F)F)c(OCC2CC2)c1")
"> 30 µM"
>>> result_value("CN(c1nccc(=O)[nH]1)C1CCN(c2nc3ccccc3n2Cc2ccc(F)cc2)CC1")
"> 30 µM"
>>> result_value("CC(/C=C1\\SC(=S)N(CC(=O)O)C1=O)=C\\c1ccccc1")
"> 30 µM"
>>> result_value("Nc1nc(O)c2ncn(COC(CO)CO)c2n1")
"> 30 µM"
>>> result_value("C=CC(N)CCC(=O)O (centres undefined)")
"> 10 µM"
>>> result_value("O=C(O)c1ccccc1Nc1cccc(C(F)(F)F)c1")
"> 10 µM"
>>> result_value("COC(=O)[C@H](c1ccccc1Cl)N1CCc2sccc2C1")
"> 30 µM"

AC50 measured on `CCCCC[C@H](O)/C=C/[C@H]1[C@H](O)CC(=O)[C@@H]1C/C=C\CCCC(=O)O` = > 30 µM

Reference source for all entries: ChEMBL document CHEMBL5291721
